# Tested on: EKVX NSCLC
# EXPERIMENT_SUMMARY: NCI-60 one-dose screen, 48 h (100 = growth as untreated, 0 = no growth, -100 = all killed)
# CONDITIONS: 10 µM unless noted
Compounds without any hit were thinned out: in the full panel of roughly 83,000, 20% have a hit.
growth by entry:
ASSAY_METRIC: growth (%)

COMPOUND: COc1ccc(OC)c(NC2=C(SCCc3ccccc3)C(=O)c3ccccc3C2=O)c1
VALUE_MEASURED: 77.3

COMPOUND: Cc1cccc(NC(=O)[C@@H]2c3ccccc3C(=O)N(c3ccc(Cl)cc3)[C@H]2c2ccc(Cl)cc2)n1
VALUE_MEASURED: 37.2

COMPOUND: CS(=O)(=O)CCNCc1ccc(-c2ccc3ncnc(Nc4ccc(OCc5cccc(F)c5)c(Cl)c4)c3c2)o1
VALUE_MEASURED: 29.9

COMPOUND: Cc1nn(-c2nc3ccccc3[nH]2)c2c1C(c1ccc(OCc3ccc(F)cc3)cc1)CC(=O)N2 (stereo unspecified)
VALUE_MEASURED: 81.7

COMPOUND: C[C@@]1(C(=O)Nc2ccc(F)nc2)CCCN1c1nc(Nc2cc(C3CC3)[nH]n2)c2cccn2n1
VALUE_MEASURED: 46.2

COMPOUND: C=C1[C@@H](O)C[C@H]2C(C)(C)C[C@H](Cl)C[C@]2(C)[C@H]1C[C@H](O)[C@H]1CC(=O)NC1=O
VALUE_MEASURED: -25.1

COMPOUND: Clc1nc(Cl)c2ncn(CC#CCn3cnc4c(Cl)nc(Cl)nc43)c2n1
VALUE_MEASURED: -39.3

COMPOUND: CC(=O)OC1Oc2ccccc2-c2oc(=O)c(-c3cc4ccc(N(C)C)cc4oc3=O)cc21 (stereo unspecified)
VALUE_MEASURED: 35.3

COMPOUND: Cn1ncc(Cl)c1-c1cc(C(=O)N[C@H](CN)Cc2cccc(F)c2)sc1Cl
VALUE_MEASURED: 38.5

COMPOUND: CC1(C)NC(=O)c2[nH]c3c(Cl)c(Cl)ccc3c2C1C#N (stereo unspecified)
VALUE_MEASURED: 67.2

COMPOUND: Cc1sc2c(c1C)c(=O)nc1c(-c3nc(-c4ccccc4)cs3)n[nH]n12
VALUE_MEASURED: 80.1

COMPOUND: CN1CCN(c2ccc(C(=O)Nc3n[nH]c4ccc(Cc5cc(F)cc(F)c5)cc34)c(NC3CCOCC3)c2)CC1
VALUE_MEASURED: 8.7

COMPOUND: C=CCN(/C=C1/C(=O)O[C@H](COC)[C@@]2(C)C1=C(O)C(=O)C1=C2[C@H](OC(C)=O)C[C@]2(C)C(=O)CC[C@@H]12)CC=C
VALUE_MEASURED: 21.8

COMPOUND: COc1ccc2c(CCC(c3ccccc3)c3ccccc3)c3[n+](cc2c1OC)CCc1cc2c(cc1-3)OCO2
VALUE_MEASURED: 24.7

COMPOUND: CC(C)[C@@H]1CC[C@]2(CO2)[C@@H]2C(=O)OCC(C(=O)O)=C[C@H]21
VALUE_MEASURED: 71.5

COMPOUND: C=CC(=O)N(C)[C@H]1C[C@H]2OC(C)(C1OC)n1c3ccccc3c3c4c(c5c6ccccc6n2c5c31)C(=O)NC4 (stereo partly specified)
VALUE_MEASURED: 17.9

COMPOUND: Cc1ncc(-c2ccnc(Nc3ccc(S(C)(=O)=O)cc3)n2)n1C(C)C
VALUE_MEASURED: -10.5

COMPOUND: C[C@@H](NC(=O)c1ncnc(N)c1Cl)c1ncc(C(=O)Nc2cc(C(F)(F)F)c(Cl)cn2)s1
VALUE_MEASURED: 101

COMPOUND: CCN(CCCOc1ccc2c(Nc3cc(CC(=O)Nc4cccc(F)c4)[nH]n3)ncnc2c1)CCOP(=O)(O)O
VALUE_MEASURED: 99.3

COMPOUND: Brc1ccc([I+]c2ccc(Br)cc2)cc1
VALUE_MEASURED: 19.3

COMPOUND: CC(C)Nc1cc(-c2c[nH]c(C(=O)N[C@H](CO)c3cccc(Cl)c3)c2)c(Cl)cn1
VALUE_MEASURED: 38.9

COMPOUND: CO[C@@H](C(=O)N1Cc2[nH]nc(NC(=O)c3ccc(N4CCN(C)CC4)cc3)c2C1)c1ccccc1
VALUE_MEASURED: 59.3

COMPOUND: CCN1CCN(c2cc(C)nc(N(CCCNc3ccnc4cc(Cl)ccc34)Cc3cccs3)n2)CC1
VALUE_MEASURED: 42.3

COMPOUND: C[C@@H]1COCCN1c1cc(C2([S@](C)(=N)=O)CC2)nc(-c2ccnc3[nH]ccc23)n1
VALUE_MEASURED: 54.2

COMPOUND: O=C(NC[C@H](O)CO)c1ccncc1Nc1ccc(I)cc1F
VALUE_MEASURED: 45.1

COMPOUND: COc1cc2nccc(Oc3ccc(NC(=O)Nc4cc(C)on4)c(Cl)c3)c2cc1OC
VALUE_MEASURED: 37.6

COMPOUND: O=C(Cn1c(=O)ccn(CCCCCCCCOc2ccc(Br)cc2)c1=O)Nc1ccc(Oc2ccc(Cl)cc2)cc1
VALUE_MEASURED: 50.6

COMPOUND: CC(=O)Nc1cccc(-n2c(=O)n(C3CC3)c(=O)c3c(Nc4ccc(I)cc4F)n(C)c(=O)c(C)c32)c1
VALUE_MEASURED: 46

COMPOUND: Cc1cc2c(-c3nc4ccccn4c3N)c(O)c(O)cc2c(O)c1-c1c(C)cc2c(-c3nc4ccccn4c3N)c(O)c(O)cc2c1O
VALUE_MEASURED: 21.8

COMPOUND: Clc1ccc2c(NCCNc3nc(N4CCCC4)nc4ccccc34)ccnc2c1
VALUE_MEASURED: 24.4

COMPOUND: COc1cnc2c(c1)C(=O)c1c-2n(CCCNC2=NCCS2)c(=O)c2cc(Cl)ccc12
VALUE_MEASURED: -35.8

COMPOUND: CNC(=O)CN1CCC(Oc2cc3c(Nc4cccc(Cl)c4F)ncnc3cc2OC)CC1
VALUE_MEASURED: 32.1

COMPOUND: Oc1ccc(C(c2ccc(O)cc2)C(Cl)(Cl)Cl)cc1
VALUE_MEASURED: 82.5

COMPOUND: O=C1CCC(=O)CC1
VALUE_MEASURED: 98.8

COMPOUND: CCn1c(-c2nonc2N)nc2c(C#CC(C)(C)O)ncc(OC[C@H]3CCCNC3)c21
VALUE_MEASURED: 91.9

COMPOUND: Cc1ccc(-n2nc(C(C)(C)C)cc2NC(=O)NCc2cc(F)ccc2Oc2ccc3c(cnn3CCO)c2)cc1
VALUE_MEASURED: 39.7
